EXPERIMENT_DESCRIPTION: Stability in human plasma assessed as compound remaining at 100 uM after 60 mins by LC-MS/MS analysis (reference value: 100%)
Assay type: ADME, cell-free
RUN_PARAMETERS: read-out: Stability
QUANTITY: remaining at 1 h, 100 µM (%)
The reply should contain only the number, in %.

For record Cc1cc(Nc2nc(NCc3ccc(F)cc3F)nc3c2cnn3C2CCN(C(=O)C3CCN(c4ccc5c(c4)C(=O)N(C4CCC(=O)NC4=O)C5=O)CC3)CC2)n[nH]1 (stereo unspecified) the listed remaining at 1 h, 100 µM is 83.6

* * *

STUDY_TARGET: CYP1A2 (Homo sapiens)
Sequence (P05177 whole entry): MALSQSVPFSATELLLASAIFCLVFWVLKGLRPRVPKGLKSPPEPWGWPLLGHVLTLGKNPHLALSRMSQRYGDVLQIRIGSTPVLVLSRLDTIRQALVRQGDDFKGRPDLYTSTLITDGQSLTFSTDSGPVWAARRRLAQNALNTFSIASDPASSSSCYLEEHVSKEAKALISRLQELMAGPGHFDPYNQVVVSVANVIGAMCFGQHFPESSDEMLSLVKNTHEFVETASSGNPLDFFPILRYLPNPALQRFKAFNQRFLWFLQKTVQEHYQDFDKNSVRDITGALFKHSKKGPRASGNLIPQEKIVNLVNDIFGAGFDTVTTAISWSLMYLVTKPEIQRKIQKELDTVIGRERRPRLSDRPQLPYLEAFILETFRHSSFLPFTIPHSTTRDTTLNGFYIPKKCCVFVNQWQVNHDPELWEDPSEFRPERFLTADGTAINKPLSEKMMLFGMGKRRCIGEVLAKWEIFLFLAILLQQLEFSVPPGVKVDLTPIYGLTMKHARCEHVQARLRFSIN
EXPERIMENT_DESCRIPTION: Inhibition of CYP1A2 in human liver microsomes at 10 uM using alpha-Naphthoflavone as substrate preincubated for 10 mins followed by NADPH regenerating system addition and measured after 15 mins by LC-MS/MS analysis relative to control
Assay type: ADME, Microsome
RUN_PARAMETERS: time 25 min
QUANTITY: inhibition at 0.25 h, 10 µM

For record Cc1cc(Nc2nc(NCc3ccc(F)cc3F)nc3c2cnn3C2CCN(C(=O)C3CCN(c4ccc5c(c4)C(=O)N(C4CCC(=O)NC4=O)C5=O)CC3)CC2)n[nH]1 (stereo unspecified) the listed inhibition at 0.25 h, 10 µM is 10.4%

* * *

EXPERIMENT_DESCRIPTION: Metabolic stability in human liver microsomes assessed as compound remaining at 100 uM incubated for 60 mins by LC-MS/MS analysis
Type: ADME, Microsome
RUN_PARAMETERS: read-out: Stability
QUANTITY: remaining at 1 h, 100 µM (%)
The reply should contain only the number, in %.

For record Cc1cc(Nc2nc(NCc3ccc(F)cc3F)nc3c2cnn3C2CCN(C(=O)C3CCN(c4ccc5c(c4)C(=O)N(C4CCC(=O)NC4=O)C5=O)CC3)CC2)n[nH]1 (stereo unspecified) the listed remaining at 1 h, 100 µM is 97.3

* * *

EXPERIMENT_DESCRIPTION: Metabolic stability in rat liver microsomes assessed as half life at 100 uM incubated for 60 mins in presence of NADPH by LC-MS/MS analysis
Type: ADME, Microsome
QUANTITY: half-life at 100 µM (h)
The reply should contain only the number, in h.

For record Cc1cc(Nc2nc(NCc3ccc(F)cc3F)nc3c2cnn3C2CCN(C(=O)C3CCN(c4ccc5c(c4)C(=O)N(C4CCC(=O)NC4=O)C5=O)CC3)CC2)n[nH]1 (stereo unspecified) the listed half-life at 100 µM is 1.11

* * *

EXPERIMENT_DESCRIPTION: Observed AUC infinity in ICR mouse at 20 mg/kg, ip measured upto 24 hrs by LC-M/MS analysis
Type: ADME, organism-based
Set-up: dose 20 mg/kg, time < 24 hrs, route ip
RUN_PARAMETERS: in vivo
QUANTITY: AUC(0-inf) (ng·h/mL)
The reply should contain only the number, in ng·h/mL.

For record Cc1cc(Nc2nc(NCc3ccc(F)cc3F)nc3c2cnn3C2CCN(C(=O)C3CCN(c4ccc5c(c4)C(=O)N(C4CCC(=O)NC4=O)C5=O)CC3)CC2)n[nH]1 (stereo unspecified) the listed AUC(0-inf) is 14200

* * *

EXPERIMENT_DESCRIPTION: AUClast in ICR mouse at 2 mg/kg, iv measured upto 24 hrs by LC-M/MS analysis
Format: ADME, organism-based
Design: time < 24 hrs, dose 2 mg/kg, route iv
RUN_PARAMETERS: in vivo
QUANTITY: AUC(0-t) at 24 h (ng·h/mL)
The reply should contain only the number, in ng·h/mL.

For record Cc1cc(Nc2nc(NCc3ccc(F)cc3F)nc3c2cnn3C2CCN(C(=O)C3CCN(c4ccc5c(c4)C(=O)N(C4CCC(=O)NC4=O)C5=O)CC3)CC2)n[nH]1 (stereo unspecified) the listed AUC(0-t) at 24 h is 941
